# target_or_system: LDB3, O75112
# Sequence (O75112 1-94): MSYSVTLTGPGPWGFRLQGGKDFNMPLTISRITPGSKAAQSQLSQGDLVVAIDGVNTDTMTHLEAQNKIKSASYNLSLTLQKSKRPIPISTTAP
# experiment_description: holdup assay
# Design: key: below the threshold = too weak to quantify, mostly under pKd 3.1 to 4
# condition_parameters: plain residues with an end cap or a label only (N-terminal biotin on a linker: ttds)

binder	pKd
IYVPEAQTRL [DLGAP4, Q9Y2H0]	below the threshold
IDNDTESTAL [ARHGAP17, Q68EM7]	below the threshold
ERKLSSESQV [LRP4, O75096]	below the threshold
PKTPPTDTSV [KIR3DL3, Q8N743]	below the threshold
SSRTRRETQL [HPV16-E6, P03126]	below the threshold
GQDSREETQL [KCNT2, Q6UVM3]	below the threshold
SVWLRKETRV [CYSLTR2, Q9NS75]	below the threshold
QSARYRDTEL [TJP2, Q9UDY2]	below the threshold
SRPQRTQTQV [HPV67-E6, A4U7F2]	below the threshold
RSLEEEESQL [GRASP, Q7Z6J2]	3.68
VLRLQSETSV [VANGL1, Q8TAA9]	below the threshold
TVASEKESVM [SLC1A5, Q15758]	below the threshold
STLTIFETAL [ABCC4, O15439]	below the threshold
